Read-out: CD38, CD38 (gene 952)
Test: BSK_SAg_CD38: BioMAP Diversity Plus: SAg Assay for CD38 Biomarker Activity (AID 2283087)
Settings: primary human HUVEC with PBMC; actives raise or lower the signal
Active and inactive are the calls of the source. Rule for the calls: active = hit-call score of the fitted dose curve at least 0.9, where 1 is the maximum; inactive = score below 0.9.
Tick one outcome: active, inactive

- molecule: "O=C(O)c1cccc(N(Cc2cccnc2)c2ccc(OC(F)F)c(OC(F)F)c2)c1"
  discrete label: "active"
- molecule: "O=c1[nH]c2ccc(S(=O)CCN3CCC(Cc4ccc(F)cc4)CC3)cc2o1 (stereo not given)"
  discrete label: "inactive"

Lookup: Identify the outcome logged in this assay for the molecule shown: CC(C)CC(C)(O)C#CC(C)(O)CC(C)C (stereo not given)
Found: inactive

Lookup: Identify the outcome logged in this assay for the molecule shown: CCCCC(CC)COC(=O)CCCCCCCCC(=O)OCC(CC)CCCC (stereo not given)
Found: inactive

Lookup: Identify the outcome logged in this assay for the molecule shown: `O=C1CCCCCN1`
Found: inactive

Lookup: Identify the outcome logged in this assay for the molecule shown: `COc1ccc(/C=C/S(=O)(=O)NC(=O)c2ccc(C)cc2Cl)cc1`
Found: inactive

Lookup: Identify the outcome logged in this assay for the molecule shown: CC/C(=C\C(=N/O)C(N)=O)C(C)[N+](=O)[O-] (stereo not given)
Found: inactive

Lookup: Identify the outcome logged in this assay for the molecule shown: Fc1ccccc1[C@@H](F)COC1CCC(Nc2ncnc3[nH]ncc23)CC1 (stereo not given in full)
Found: active

Lookup: Identify the outcome logged in this assay for the molecule shown: `CCC(C)(C)C(=O)O[C@H]1C[C@@H](C)C=C2C=C[C@H](C)[C@H](CC[C@@H]3C[C@@H](O)CC(=O)O3)[C@H]21`
Found: active

Lookup: Identify the outcome logged in this assay for the molecule shown: `CC(C)(O)c1coc(S(=O)(=O)NC(=O)Nc2c3c(cc4c2CCC4)CCC3)c1`
Found: inactive

----------
Assay: Tanguay_ZF_120hpf_YSE_legacy: (Legacy) Oregon State University Tanguay Lab 120 Hour Post-fertilization zebrafish Assay for Yolk Sac Edema (AID 2283634)
Records with an inconclusive call do not appear. Calls of active or inactive are those of the source. How the source made its calls: active means hit-call score of the fitted dose curve at least 0.9, where 1 is the maximum; inconclusive means response in the unintended direction; inactive means score below 0.9.
Tick one outcome: active, inactive

# example entries with known answers
- chemical string: "CNCc1ccc(NC(=O)c2c[nH]c3c2C(=O)CCC3)cc1"
  discrete label: "inactive"
- chemical string: "COC(=O)CC(=O)OC"
  discrete label: "inactive"
- chemical string: "On1ccccc1=S"
  discrete label: "active"
- chemical string: "C1N2CN3CN1CN(C2)C3"
  discrete label: "inactive"

Lookup: Identify the outcome logged in this assay for the compound shown: `CCC(C)(C)C(=O)O[C@H]1C[C@@H](C)C=C2C=C[C@H](C)[C@H](CC[C@@H]3C[C@@H](O)CC(=O)O3)[C@H]21`
Found: active

Lookup: Identify the outcome logged in this assay for the compound shown: `Clc1nc(Cl)c(Cl)c(Cl)c1Cl`
Found: inactive

Lookup: Identify the outcome logged in this assay for the compound shown: `O=C(OC[C@H]1O[C@@H](OC(=O)c2cc(O)c(O)c(OC(=O)c3cc(O)c(O)c(O)c3)c2)[C@H](OC(=O)c2cc(O)c(O)c(OC(=O)c3cc(O)c(O)c(O)c3)c2)[C@@H](OC(=O)c2cc(O)c(O)c(OC(=O)c3cc(O)c(O)c(O)c3)c2)[C@@H]1OC(=O)c1cc(O)c(O)c(OC(=O)c2cc(O)c(O)c(O)c2)c1)c1cc(O)c(O)c(OC(=O)c2cc(O)c(O)c(O)c2)c1`
Found: inactive

Lookup: Identify the outcome logged in this assay for the compound shown: `CC(=O)c1ccc2c(c1)[C@H](NC(=O)c1ccc(F)cc1)[C@@H](O)C(C)(C)O2`
Found: inactive

----------
Entries annotated with measured AC50
Biological target: human Histamine 1 Receptor (H1), HRH1 (gene 3269) (UniProt P35367)
Sequence (P35367 whole entry, looked up): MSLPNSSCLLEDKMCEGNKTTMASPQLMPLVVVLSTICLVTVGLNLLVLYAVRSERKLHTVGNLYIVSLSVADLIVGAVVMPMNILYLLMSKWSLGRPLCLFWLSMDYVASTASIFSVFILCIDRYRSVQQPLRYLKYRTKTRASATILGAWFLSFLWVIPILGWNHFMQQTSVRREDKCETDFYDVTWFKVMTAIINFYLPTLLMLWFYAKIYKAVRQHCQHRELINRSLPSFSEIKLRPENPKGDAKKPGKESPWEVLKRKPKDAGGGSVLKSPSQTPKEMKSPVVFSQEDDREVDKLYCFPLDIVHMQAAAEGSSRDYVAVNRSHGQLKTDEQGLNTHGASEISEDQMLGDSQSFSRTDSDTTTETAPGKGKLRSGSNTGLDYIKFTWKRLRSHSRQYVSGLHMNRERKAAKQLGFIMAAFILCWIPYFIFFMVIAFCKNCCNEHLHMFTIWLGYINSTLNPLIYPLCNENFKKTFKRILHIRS
Experiment: NVS_GPCR_hH1: NovaScreen (NVS) G Protein-Coupled Receptor Assay for human Histamine 1 Receptor (H1) (AID 2283268)
Inconclusive results are not listed. Calls of active or inactive are those of the source. Rule for the calls: active = hit-call score of the fitted dose curve at least 0.9, where 1 is the maximum; inconclusive = response in the unintended direction; inactive = score below 0.9.

Before answering, review these 2 worked examples.
- chemical string: "CCc1cc(SCc2sc(-c3ccc(C(F)(F)F)cc3)nc2CN2CCN(c3ccc(OC)cc3)CC2)ccc1OCC(=O)O"
  result: "25 µM (active)"
- chemical string: "Cc1[nH]cnc1C[C@H]1CCc2c(C)c3ccccc3n2C1=O"
  result: "4.88 µM (active)"

Lookup: Suppose we examine the molecule `O=P(OC(CCl)CCl)(OC(CCl)CCl)OC(CCl)CCl` ; what AC50 value has been reported?
Found: 19.8 µM (active)

----------
Read-out: adenosine kinase (ADK) gene, ADK (gene 132)
Assay: LTEA_HepaRG_ADK: Life Technologies and Expression Analysis (LTEA) Assay for adenosine kinase (ADK) gene using HepaRG (AID 2283471)
Conditions: mRNA level, 48 h; actives raise or lower the signal
The source made the active and inactive calls. Rule for the calls: active = hit-call score of the fitted dose curve at least 0.9, where 1 is the maximum; inactive = score below 0.9.
Tick one outcome: active, inactive

# example entries with known answers
- molecule: "O=C(O)c1cc(N=Nc2ccc(S(=O)(=O)Nc3ccccn3)cc2)ccc1O"
  discrete label: "inactive"
- molecule: "O=C(NS(=O)(=O)/C=C/c1ccccc1)c1ccc(F)cc1Cl"
  discrete label: "inactive"
- molecule: "CCNc1ccccc1"
  discrete label: "inactive"
- molecule: "CC(C)CCCCCCCOC(=O)CCCCC(=O)OCCCCCCCC(C)C"
  discrete label: "inactive"
- molecule: "O=C(O)c1cccc(N(Cc2cccnc2)c2ccc(OC(F)F)c(OC(F)F)c2)c1"
  discrete label: "inactive"

Lookup: Identify the outcome logged in this assay for the molecule shown: `CC[C@H]1CC[C@H](NCc2cc3c(cc2OC)[C@H]2C[C@H]2C(=O)N3C)[C@H](c2ccccc2)N1`
Found: inactive

Lookup: Identify the outcome logged in this assay for the molecule shown: `CCC(C)(C)C(=O)O[C@H]1C[C@@H](C)C=C2C=C[C@H](C)[C@H](CC[C@@H]3C[C@@H](O)CC(=O)O3)[C@H]21`
Found: inactive

Lookup: Identify the outcome logged in this assay for the molecule shown: `CCCC(=O)OCC`
Found: inactive

----------
Experiment: CCTE_Shafer_MEA_acute_interburst_interval_mean: CCTE's Neural Acute Assay for Mean Interburst Interval, Shafer Lab (AID 2284016);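 note: percent change of mean interburst interval versus each well's own pre-dose baseline; curves fitted for decrease in interburst interval relative to DMSO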
Active and inactive are the calls of the source. The calls were made as follows: active = hit-call score of the fitted dose curve at least 0.9, where 1 is the maximum; inactive = score below 0.9.
Tick one outcome: active, inactive

# example entries with known answers
- molecule: "CCCN(C1CCN(C(=O)C2CCNCC2)CC1)[C@@H]1CCc2ccc(OC)cc2C1"
  discrete label: "inactive"
- molecule: "Cn1cnc([N+](=O)[O-])c1Sc1ncnc2nc[nH]c12"
  discrete label: "inactive"
- molecule: "O=C(O)c1cc(N=Nc2ccc(S(=O)(=O)Nc3ccccn3)cc2)ccc1O"
  discrete label: "inactive"
- molecule: "CC[C@H]1CC[C@H](NCc2cc3c(cc2OC)[C@H]2C[C@H]2C(=O)N3C)[C@H](c2ccccc2)N1"
  discrete label: "active"

Switching to the query record.
Lookup: Identify the outcome logged in this assay for the molecule shown: `COc1cccc(-c2ccc(/C=C\CN3CCCCCC3)cc2Cl)c1`
Found: inactive

----------
Test: APR_HepG2_MitoMass_24hr: Apredica 24-hour HepG2 Assay for Mitochondrial Mass (AID 2282912)
Details: high-content imaging, actives raise or lower the signal
Calls of active or inactive are those of the source. How the source made its calls: active means hit-call score of the fitted dose curve at least 0.9, where 1 is the maximum; inactive means score below 0.9.
Tick one outcome: true (1) = active, false (0) = inactive

- molecule: "O=C(O)c1cc(N=Nc2ccc(S(=O)(=O)Nc3ccccn3)cc2)ccc1O"
  discrete label: "false (0)"

Lookup: Identify the outcome logged in this assay for the molecule shown: COc1ccc(-n2nc(C(F)F)cc2-c2ccc(S(C)=O)cc2)cc1 (stereo not drawn)
Found: false (0)

Lookup: Identify the outcome logged in this assay for the molecule shown: `COC(=O)c1ccccc1O`
Found: false (0)

Lookup: Identify the outcome logged in this assay for the molecule shown: `COCCOCCOCCOC`
Found: false (0)

Lookup: Identify the outcome logged in this assay for the molecule shown: `O=C(O)c1cccc(N(Cc2cccnc2)c2ccc(OC(F)F)c(OC(F)F)c2)c1`
Found: true (1)

Lookup: Identify the outcome logged in this assay for the molecule shown: `Nc1cccc(N)c1`
Found: false (0)

Lookup: Identify the outcome logged in this assay for the molecule shown: `C=CCCCCCCCCC(=O)O`
Found: false (0)

Lookup: Identify the outcome logged in this assay for the molecule shown: `Cc1ccc(O)cc1`
Found: false (0)

Lookup: Identify the outcome logged in this assay for the molecule shown: `CC(C)=CCCC(C)=CC=O`
Found: false (0)

Lookup: Identify the outcome logged in this assay for the molecule shown: `Cn1c(=O)c2c(ncn2C)n(C)c1=O`
Found: false (0)

Lookup: Identify the outcome logged in this assay for the molecule shown: `CCC(C)(C)C(=O)O[C@H]1C[C@@H](C)C=C2C=C[C@H](C)[C@H](CC[C@@H]3C[C@@H](O)CC(=O)O3)[C@H]21`
Found: true (1)

Lookup: Identify the outcome logged in this assay for the molecule shown: `CC(C)c1cccc(C(C)C)c1N1C(=O)c2ccc(O)cc2C1=O`
Found: true (1)

Lookup: Identify the outcome logged in this assay for the molecule shown: `CCOCCO`
Found: false (0)

Lookup: Identify the outcome logged in this assay for the molecule shown: `CCCCCCCCO`
Found: false (0)

Lookup: Identify the outcome logged in this assay for the molecule shown: `Cn1cnc([N+](=O)[O-])c1Sc1ncnc2nc[nH]c12`
Found: false (0)

Lookup: Identify the outcome logged in this assay for the molecule shown: `CC1(C)C(=O)N(Br)C(=O)N1Br`
Found: false (0)

Source of measurements: PubChem BioAssay (EPA / NIEHS)
